These data points were gathered from patent US20100267561A1.

Below: a set of entries, each annotated with reported Foxtail, Green plant response rating.
- Tested on: green foxtail (Setaria viridis)
- testName: Test B pre-/postemergence plant response
- Type: in vivo
- measurementContext: Preemergence; 8 g ai/ha; scale 0 to 100
experimentalReadout: Foxtail, Green plant response rating

>>> endpointresult("Cc1cn(-c2ccc(Cl)cc2)nc1-c1c(O)cnn(C)c1=O")
0
>>> endpointresult("Cc1nn(C)c(=O)c(-n2nc(-c3ccc(C(F)(F)F)cc3)cc2C)c1O")
0
>>> endpointresult("CCc1cc(-c2ccc(C(F)(F)F)cc2)nn1-c1c(O)cnn(CC)c1=O")
100
>>> endpointresult("CCc1cc(-c2ccc(F)cc2)nn1-c1c(O)cnn(C)c1=O")
50
>>> endpointresult("C#CCOC(=O)Oc1cnn(C)c(=O)c1-n1nc(-c2ccc(Cl)cc2)cc1C")
100
>>> endpointresult("CCc1c(C)c(-c2ccc(Cl)cc2)nn1-c1c(O)cnn(C)c1=O")
98

###

- Test system: Italian ryegrass (Lolium multiflorum)
- testName: Test C pre-/postemergence plant response
- Type: in vivo
- measurementContext: Preemergence, 31 g ai/ha; scale 0 to 100 (0 no effect, 100 complete control)
experimentalReadout: Plant response rating, Ryegrass, Italian

>>> endpointresult("Cc1cn(-c2ccc(Cl)cc2)nc1-c1c(O)cnn(C)c1=O [Compound 30]")
60
>>> endpointresult("CCc1cc(-c2ccc(F)cc2)nn1-c1c(O)cnn(C)c1=O [Compound 25]")
60
>>> endpointresult("CCc1cc(-c2ccc(C(F)(F)F)cc2)nn1-c1c(O)cnn(C)c1=O [Compound 11]")
100
>>> endpointresult("CCc1cc(-c2ccc(Cl)cc2)nn1-c1c(OC(=O)OC(C)C)cnn(C)c1=O [Compound 41]")
100

###

- Test system: giant foxtail (Setaria faberi)
- testName: Test A pre-/postemergence plant response
- Assay type: in vivo
- measurementContext: Preemergence, 31 g ai/ha; 0 to 100 scale, 0 is no effect, 100 is complete control
experimentalReadout: Plant response rating, Foxtail, Giant

>>> endpointresult("COc1nn(C)c(=O)c(-n2nc(-c3ccc(Br)cc3)cc2C)c1O")
90
>>> endpointresult("CCc1cc(-c2ccc(Cl)cc2)nn1-c1c(OC(=O)OC(C)C)cnn(C)c1=O")
90
>>> endpointresult("Cc1nn(C)c(=O)c(-n2nc(-c3ccc(Br)cc3)cc2C)c1O")
80
>>> endpointresult("CCc1cc(-c2ccc(Br)cc2)nn1-c1c(O)c(OC)nn(C)c1=O")
90
>>> endpointresult("Cc1cc(-c2ccc(Cl)cc2)nn1-c1c(OC(=S)N(C)C)cnn(C)c1=O")
20
>>> endpointresult("Cc1cc(-c2ccc(Cl)cc2)nn1-c1c(OS(=O)(=O)c2ccccc2[N+](=O)[O-])cnn(C)c1=O")
90
>>> endpointresult("COCc1cc(-c2ccc(Br)cc2)nn1-c1c(O)cnn(C)c1=O")
10
>>> endpointresult("C#CCOC(=O)Oc1cnn(C)c(=O)c1-n1nc(-c2ccc(Cl)cc2)cc1C")
90

###

- Tested on: barnyardgrass (Echinochloa crus-galli)
- testName: Test A pre-/postemergence plant response
- Format: in vivo
- measurementContext: Preemergence, 125 g ai/ha; 0 to 100 scale (0 no effect, 100 complete control)
Below: a set of entries, each annotated with reported Plant response rating, Barnyardgrass.
experimentalReadout: Plant response rating, Barnyardgrass

>>> endpointresult("CCc1cc(-c2ccc(F)cc2)nn1-c1c(O)cnn(C)c1=O [Compound 25]")
100
>>> endpointresult("Cc1nc(-c2ccc(C(F)(F)F)cc2)sc1-c1c(O)cnn(C)c1=O [Compound 24]")
0
>>> endpointresult("COC(=O)Oc1cnn(C)c(=O)c1-n1nc(-c2ccc(Cl)cc2)cc1C [Compound 33]")
100
